# credit: PubChem BioAssay

Assay: probe aDKK1 binding to arrayed compounds – biochemical, biotinylated probe, 635/667 nm fluorescence, primary screen (AID 1099);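 further: score merges 667nm spot fluorescence with signal to noise across triplicate slides; reference of the scale not given here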
Conditions: small-molecule microarray, higher = more signal
Measured parameter: composite z-score
// return a plain number; no unit text

Example entries begin here.
Smiles record	composite z-score
COc1cc2c(cc1OC)CN(C(=O)[C@@H]1[C@H]3C(=O)O[C@H](c4ccccc4)[C@H](c4ccccc4)N3[C@H](c3ccc(O)cc3)[C@@]13C(=O)Nc1ccc(C#CCNC(N)=O)cc13)CC2	-0.053
C=C(CCCC)/C(=C/C[C@@H](OC(=O)c1ccncc1)c1ccccc1OCCO)c1cc(C(=O)OC)ccc1OC	-0.0551

// moving on: another record for composite z-score
INPUT: Fill in: composite z-score of `CN(C)CCCN1C(=O)[C@@]2(Cc3ccccc31)c1ccccc1C(=O)N(Cc1ccccc1)[C@H]2c1ccc(CO)cc1` is ___
OUTPUT: -0.152
